Test system: C2C12 cells
Test: Glucose utilization in cultured C2C12 cells and insulin dependence
Format: cell-based, mouse
Setup conditions: peptide 10 μM with 5-20 nM insulin, 22 h, glucose in medium relative to insulin treated cells
Non-standard residues stand in square brackets, D forms with d. Primed or numbered codes have the meaning given here. No end group written: not given here. PEG12′ = polyethylene glycol moiety of 12 units
Listing of entries alongside the reported Glucose Utilization, Percent of Control Activity With Insulin.
Observation type: Glucose Utilization, Percent of Control Activity With Insulin

# Substance, Result
measured = [
    ("8 (RRMMGMVFQCLCG[dA]; cysteine pairing not given here) [compound 8]", "85.5%"),
    ("26 (RREMVYQCLEG[dA]) [compound 26]", "98.4%"),
    ("11 (RRMMGMVAQCLCGA) [compound 11]", "84.5%"),
    ("16 (RRMMGMVFQCLSG[dA]) [compound 16]", "88.4%"),
    ("30 (RRMMGMVAQCLEGA; (14)..(14) RRMMGMVAQCLEG(A) [compound 30]", "88.3%"),
    ("28 (RRMGYQCLEG[dA]) [compound 28]", "88.2%"),
    ("24 (RRMVYQCLEG[dA]) [compound 24]", "85.8%"),
    ("25 (RREMVYQCLCG[dA]; cysteine pairing not given here) [compound 25]", "77.4%"),
    ("20 (KRRMMGMVFQCLCGA; (1)..(1) PEG12; (15)..(15) d-Ala) [compound 20]", "91%"),
    ("17 (RRMMGMVFQSLSG[dA]) [compound 17]", "96.2%"),
    ("12 (RRMMGMVEQCLCG[dA]; cysteine pairing not given here) [compound 12]", "84.5%"),
    ("13 (RRMMGMVFQELCG[dA]) [compound 13]", "97.8%"),
    ("21 (RRMMGMVFQCLCG[dA]K(PEG12′); cysteine pairing not given here) [compound 21]", "86%"),
    ("31 (RRMEVYQCLCG[dA]; not fully specified; printed as RRMEVYQCLCG(dA); cysteine pairing not given here) [compound 31]", "99.2%"),
    ("27 (RRMAYQCLEG[dA]) [compound 27]", "106.2%"),
    ("10 (RRMMGMVYQCLCG[dA]; cysteine pairing not given here) [compound 10]", "76.3%"),
    ("22 (RRMVYQCLCG[dA]; cysteine pairing not given here) [compound 22]", "79.8%"),
    ("32 (RRMEVYQCLEG[dA]) [compound 32]", "85.0%"),
    ("23 (RRMVFQCLEG[dA]) [compound 23]", "86.6%"),
    ("18 (RRXXGXVFQCLCGA; (3)..(3) Xaa is Norleucine; (4)..(4) Xaa is Norleucine; (6)..(6) Xaa is Norleucine; (14)..(14) D-Ala) [compound 18]", "122.1%"),
]

* * *

Test system: 3T3-L1 mouse adipocytes
Test: Free fatty acid levels in cultured 3T3-L1 mouse adipocytes and insulin dependence (Example 17)
Format: cell-based
Setup conditions: peptide 10 μM alone, isoproterenol 0.1 nM, relative to isoproterenol treated cells
Non-standard residues stand in square brackets, D forms with d. No end group written: not given here.
Listing of entries alongside the reported Free Fatty Acid Levels, Percent of Isoproterenol Control Activity No Insulin.
Observation type: Free Fatty Acid Levels, Percent of Isoproterenol Control Activity No Insulin (%)

# Substance, Recorded number
measured = [
    ("11 (RRMMGMVAQCLCGA) [compound 11]", 104),
    ("61 (Ac-RRMMGMVFQSLCG[dA]) [compound 61]", 112),
    ("27 (RRMAYQCLEG[dA]) [compound 27]", 108),
    ("54 (RMMGMVFQSLCG[dA]) [compound 54]", 102),
    ("10 (RRMMGMVYQCLCG[dA]; cysteine pairing not given here) [compound 10]", 97.9),
    ("22 (RRMVYQCLCG[dA]; cysteine pairing not given here) [compound 22]", 107),
]
